Origin of the recorded values: PubChem BioAssay (NCI)

# System: IGROV1 ovarian
# protocol: NCI tumour cell line growth inhibition, 48 h
quantity-kind: GI50

GI50 reported for this compound O=C(Nc1ccccc1)Nc1ccc2cc3ccc(NC(=O)Nc4ccccc4)cc3nc2c1 : 1.66 µM

# GI50 (compound: CCOC(=O)c1cc2c(cc1Cl)SC(=Nc1ccccc1)N(S(=O)(=O)c1ccc(Cl)cc1)S2(=O)=O ) is 8.11 µM

GI50 reported for this compound CCN(Cc1ccccc1)C1CCN(Cc2cc(Br)ccc2O)CC1 : > 100 µM

---

# Test system: MALME-3M melanoma
# protocol: NCI tumour cell line growth inhibition, 48 h
quantity-kind: TGI (µM)
Give the value, in units of µM, as a plain number.

// TGI lookup, molecule = Cc1ccc(C2=C(C#N)C(N)OC3=C2COc2ccccc23)cc1 (centres undefined) , result: 82.1

Summary for this molecule, Cc1cccc(C2SCc3nc4ccccc4n32)c1 (centres undefined) : TGI is 49.6

Per the records, this molecule ( COC(=O)c1ccc(CN2C(=O)C(Cl)=C(Nc3cccc(Cl)c3C)C2=O)cc1 ) has TGI equal to 9.82

Short answer for OC(COC(c1ccccc1)(c1ccccc1)c1ccccc1)C(O)CC1SCCS1 (centres undefined) : TGI was 26.3

---

# Tested on: SNB-75 CNS
# protocol: NCI tumour cell line growth inhibition, 48 h
quantity-kind: GI50

What the record says about CC1C(C)N(C(=O)CCl)c2ccccc2N1C(=O)CCl (stereo not drawn) : GI50 is 1.36 µM

Form: compound = COc1cccc(CC(C)=C(c2ccc(OCCN3CCCCC3)cc2)c2ccc(OCCN3CCCCC3)cc2)c1 ; GI50 = 1.77 µM

Reported GI50 ( CCN(CC)CCN1C(=O)c2c(c3c4ccccc4[nH]c3c3ccc4ccccc4c23)C1=O ) = 1.17 µM

---

Please go through the items and note down their TGI.
# Test system: A549 NSCLC
# protocol: NCI tumour cell line growth inhibition, 48 h
Report the figure in µM without appending any unit label.

Documented TGI of COc1ccc2c3c([nH]c2c1)CCN(CCCC(=O)c1ccc(F)cc1)C3 : 32.1

Short answer for N=c1c2c(=S)n(-c3ccccc3)c(=S)n(-c3ccccc3)c2nc(SCCN2CCCC2)n1-c1ccccc1 : TGI was 8.5

---

# System: MDA-MB-231 breast
# protocol: NCI tumour cell line growth inhibition, 48 h
quantity-kind: TGI (µM)
Write it as a number; the unit µM goes unstated.

Reported TGI ( CCN(CC)CCCNc1cc(OC)cc2nc3cc(Cl)ccc3nc12 ) = 11.7

The recorded TGI for entry COc1cc(OC)cc(-c2n/c(=C\c3c(O)[nH]c4ccc(OC)cc34)cc3c2=Nc2ccccc2-3)c1 equals 3.26

Form: compound = CCOC(=O)c1cc2c(cc1Cl)SC(=Nc1ccccc1)N(S(=O)(=O)c1ccc(Cl)cc1)S2(=O)=O ; TGI = 33.7

response.value for C[C@]12CC[C@H]3[C@@H](CC=C4C[C@@H](N5CCCC5)CC[C@@]43C)[C@@H]1C/C(=C\c1cccc(OCCN3CCOCC3)c1)[C@@H]2O (field: TGI) = 5.37

---

# Test system: OVCAR-3 ovarian
# protocol: NCI tumour cell line growth inhibition, 48 h
quantity-kind: TGI

In plain terms, COC(=O)N[C@H](C(=O)O)C(C)O[Si](C)(C)C(C)(C)C (stereo not given in full) has a documented TGI of > 100 µM

Lookup result for CC(C)=CCc1[nH]c2ccccc2c1C1=C(O)C(=O)C(c2c(CC=C(C)C)[nH]c3ccccc23)=C(O)C1=O ; measured TGI: 3.92 µM

Field TGI (entry COc1cc2c3c(n(C)c(=O)c2cc1OC)-c1cc2c(cc1/C3=C\CCCI)OCO2 ) reads > 100 µM

So for CCN(CC)CCCNc1cc(OC)cc2nc3cc(Cl)ccc3nc12 , the logged TGI turned out to be 5.9 µM

For O=C(c1ccccc1)C1S(=O)(=O)OCCOS1(=O)=O the compound record lists TGI as > 100 µM

The value of TGI measured for the compound O=C1N2Cc3c4ccc5c3CN3C(=O)N6Cc7c(ccc(c7CN1C6(c1ccccc1)C23c1ccccc1)OCCOCCNCCOCCO4)OCCOCCNCCOCCO5 (stereo not given) turned out to be > 100 µM

Reported TGI for CCN(CC)CCN1C(=O)c2c(c3c4ccccc4[nH]c3c3ccc4ccccc4c23)C1=O was 3.03 µM

Record COc1ccccc1NC(=O)CC(=O)N1N=C(N2c3ccccc3Sc3ccccc32)CC1c1ccccc1 (stereo not given) . Reported TGI: > 100 µM

TGI recorded for this compound, CC(N)(Cc1c[nH]c2cccc(F)c12)C(=O)O (stereo not given) , is > 1000 µM

Notebook: C=CCN(CCNS(=O)(=O)c1ccc(C)cc1)S(=O)(=O)c1ccc(C)cc1 , TGI read as > 100 µM
